Test: chemical genetic growth profiling, strain panel (AID 1159580);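 further: tested at 20 µM; growth read once vehicle control cultures reached saturation at 30 °C; 1 = growth at the plate median or of vehicle wells; lower values mean less growth of the strain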
Conditions: S. cerevisiae deletion strains, growth OD, locus YJL187C, strain SWE1 (second series)
Hit rate of the full screen: of about 5,500 compounds, about 2,000 (36%) were called active. About 18% were inconclusive and are not listed. No stated cut-off is given here; in the data, active means normalized growth mostly below about 0.91 (no sharp cut-off); inconclusive means no clear call, values can overlap the other calls; inactive means mostly above about 0.92. This is one part of the list.
Please answer using one outcome listed in active, inactive

Below are worked cases with known answers.
>>> qualitative_label("O=c1[nH]c(=O)n(C2C[C@@H](O)[C@@H](CO)O2)cc1F (some centres not stated)")
"inactive"
>>> qualitative_label("CC(=O)O[C@H]1C[C@@H](OC(C)=O)C(C)(C)C2C[C@@H](OC(C)=O)[C@@]3(C)C4=CC(=O)O[C@@H](c5ccoc5)[C@]4(C)CCC3[C@]21C (some centres not stated)")
"inactive"
>>> qualitative_label("Nc1ccc(C(=O)NCC(=O)O)cc1")
"inactive"

For "Cc1ccsc1/C=C/C1=NCCCN1C" , what call appears in the results of this test?
inactive

Hi team, can someone confirm the assay call for "O=C(O[C@@H]1Cc2c(O)cc(O)cc2O[C@@H]1c1cc(O)c(O)c(O)c1-c1c([C@H]2Oc3cc(O)cc(O)c3C[C@H]2O)cc(O)c(O)c1O)c1cc(O)c(O)c(O)c1" ?
active

Please share the test call associated with Cc1c(O)c(O)cc2c1CC=C1[C@@]2(C)CC[C@@]2(C)C3C[C@](C)(C(=O)O)CC[C@]3(C)CC[C@]12C (some centres not stated) .
inactive

----------
Test: chemical genetic growth profiling, strain panel (AID 1159580)
Conditions: S. cerevisiae deletion strains, growth OD, locus YPL240C, strain hsp82, active compounds read low
Screen size: about 5,500 compounds; about 2,000 (36%) were called active. Not shown: some 18% with an inconclusive outcome. Some of the results follow.
Measured property: normalized growth
Form rule: numeric answer, no unit written next to it.

Examples from the recorded data:
>>> experimental_result("Nc1ccc(C(=O)NCC(=O)O)cc1")
1.01
>>> experimental_result("O=C(O[C@@H]1Cc2c(O)cc(O)cc2O[C@@H]1c1cc(O)c(O)c(O)c1-c1c([C@H]2Oc3cc(O)cc(O)c3C[C@H]2O)cc(O)c(O)c1O)c1cc(O)c(O)c(O)c1")
1
>>> experimental_result("CO[C@H]1/C=C/O[C@@]2(C)Oc3c(C)c(O)c4c(O)c(c(/C=N/N5CCN(C)CC5)c(O)c4c3C2=O)NC(=O)/C(C)=C\\C=C\\C(C)[C@H](O)[C@@H](C)[C@@H](O)[C@@H](C)[C@@H](OC(C)=O)[C@@H]1C (stereo partly specified)")
1.02

What the record says about "COc1c2c(cc3c1OCO3)CCN(C)C2" : normalized growth is 1.01

// recorded normalized growth for "CC(=O)NCCCS(=O)(=O)O" : 1.01

Field normalized growth (entry "CC(=O)NCCCCCC(=O)O" ) reads 0.99

----------
Assay: chemical genetic growth profiling, strain panel (AID 1159580)
Conditions: S. cerevisiae deletion strains, growth OD, locus YNL209W, strain ssb2, active compounds read low
In all, about 5,500 compounds went through this assay and about 2,000 (36%) were called active. Inconclusive results (about 18%) are left out. The list shows a part of the results.
Property: normalized growth; scope: individual compounds

Use the examples below as a reference point.
>>> experimental_result("CN/C(=C\\[N+](=O)[O-])NCCSCc1ccc(CN(C)C)o1")
"0.994 (inactive)"
>>> experimental_result("Oc1c(Cl)cc(Cl)c2cccnc12")
"0.0648 (active)"
>>> experimental_result("CC(=O)Nc1cc([As](=O)(O)O)ccc1O")
"1.01 (inactive)"
>>> experimental_result("C1CNCCN1")
"1.02 (inactive)"
>>> experimental_result("COc1cc(C(=O)NCc2ccc(OCCN(C)C)cc2)cc(OC)c1OC")
"0.988 (inactive)"
>>> experimental_result("O=[N+]([O-])c1cc([As](=O)(O)O)ccc1O")
"0.974 (inactive)"
>>> experimental_result("Nc1ccc(C(=O)NCC(=O)O)cc1")
"1.01 (inactive)"
>>> experimental_result("C=CC(C1=CC(=O)C(OC)=CC1=O)c1ccccc1 (configuration not stated)")
"0.908 (active)"
>>> experimental_result("O=[N+]([O-])c1ccc(O)c([N+](=O)[O-])c1")
"0.829 (active)"
>>> experimental_result("C=C[C@@H](C1=CC(=O)C(OC)=C(OC)C1=O)c1ccccc1")
"0.748 (active)"

From here, focus on the item given below.
Briefly, normalized growth measured for "Nc1ncn([C@@H]2O[C@H](CO)[C@@H](O)[C@H]2O)c(=O)n1" : 0.997 (inactive)

----------
Assay: chemical genetic growth profiling, strain panel (AID 1159580);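 further: tested at 20 µM; growth read once vehicle control cultures reached saturation at 30 °C; 1 = growth at the plate median or of vehicle wells; lower values mean less growth of the strain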
Conditions: S. cerevisiae deletion strains, growth OD, locus YJR043C, strain POL32, active compounds read low
Out of some 5,500 compounds screened, about 2,000 (36%) were called active. Not shown: some 18% with an inconclusive outcome. The list shows a part of the results.
Quick list: normalized growth per entry.
Hey, just send me the number, nothing else.

The value of normalized growth measured for the molecule "CN1C2CCC1CC(=NO)C2" turned out to be 0.986

----------
Assay: chemical genetic growth profiling, strain panel (AID 1159580);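 further: tested at 20 µM; growth read once vehicle control cultures reached saturation at 30 °C; 1 = growth at the plate median or of vehicle wells; lower values mean less growth of the strain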
Conditions: S. cerevisiae deletion strains, growth OD, locus YJL187C, strain SWE1
In all, about 5,500 compounds went through this assay and about 2,000 (36%) were called active. Roughly 18% stayed inconclusive and do not appear here. No stated cut-off is given here; in the data, active means normalized growth mostly below about 0.91 (no sharp cut-off); inconclusive means no clear call, values can overlap the other calls; inactive means mostly above about 0.92. Some of the results follow.
Your response should consist of one outcome taken from active, inactive

Check out these entries, answers already filled in.
>>> qualitative_label("O=C1OC2COC(=O)C2C=C1NC(=O)c1ccc(Cl)cc1 (stereo unspecified)")
"active"
>>> qualitative_label("C1CCN2CC3CC(CN4CCCCC34)C2C1 (stereo unspecified)")
"inactive"
>>> qualitative_label("CCOP(=S)(OCC)SCn1c(=O)oc2cc(Cl)ccc21")
"inactive"
>>> qualitative_label("O=C1CCCC2C3CC(CN12)[C@@H]1CCCCN1C3 (stereo partly specified)")
"inactive"
>>> qualitative_label("CC(C)(C)NC[C@@H](O)COc1nsnc1N1CCOCC1")
"inactive"
>>> qualitative_label("COc1cc(OC)c2c(=O)c(-c3ccccc3)c(C)oc2c1OC")
"inactive"
>>> qualitative_label("COc1ccc(OC)c(S(=O)(=O)N2CCc3cc(OC)c(OC)cc3C2C)c1 (stereo unspecified)")
"inactive"
>>> qualitative_label("CC(=O)Nc1ccc(S(=O)(=O)c2ccc(NC(C)=O)cc2)cc1")
"inactive"
>>> qualitative_label("CCCC(C)C1(CC)C(=O)NC(=O)NC1=O (stereo unspecified)")
"inactive"
>>> qualitative_label("O[N+]1=CC=CCC1=S.On1ccccc1=S.[Zn]")
"active"

Kindly consider the entry below.
Any idea what this test logged for "CN1CCN(C=Nc2ncc(C(F)(F)F)cc2Cl)CC1" ?
inactive

----------
Experiment: chemical genetic growth profiling, strain panel (AID 1159580);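 further: tested at 20 µM; growth read once vehicle control cultures reached saturation at 30 °C; 1 = growth at the plate median or of vehicle wells; lower values mean less growth of the strain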
Settings: S. cerevisiae deletion strains, growth OD, locus YOR070C, strain gyp1, active compounds read low
Screen size: about 5,500 compounds; about 2,000 (36%) were called active. About 18% were inconclusive and are not listed. The list shows a part of the results.
Entries and their measured normalized growth follow.

>>> experimental_result("CCCC(C)C1(CC)C(=O)N=C(S)NC1=O (configuration not stated)")
"1 (inactive)"
>>> experimental_result("CC(=O)Oc1ccc(Cl)c2cccnc12")
"0.0596 (active)"
>>> experimental_result("CC(C)(C)NC[C@@H](O)COc1nsnc1N1CCOCC1")
"1.01 (inactive)"
>>> experimental_result("O=C(O)c1ccccc1Nc1ccccc1")
"0.945 (inactive)"
>>> experimental_result("CC(C)(C)NCC(O)c1ccccc1Cl (configuration not stated)")
"0.992 (inactive)"
>>> experimental_result("CN(C)CCOc1ccc(/C(=C(/CCCl)c2ccccc2)c2ccccc2)cc1")
"0.0593 (active)"

// "O=C1C=CC2=C3c4cc(O)c(O)cc4C[C@@]3(O)COC2=C1" : normalized growth value = 0.967 (inactive)

// normalized growth lookup, compound = CO[C@H]1/C=C/O[C@@]2(C)Oc3c(C)c(O)c4c(O)c(c5c(nc6cc(C)ccn65)c4c3C2=O)NC(=O)/C(C)=C\C=C\[C@H](C)[C@H](O)[C@@H](C)C(O)[C@@H](C)[C@H](OC(C)=O)[C@@H]1C (some centres not stated) , result: 1.04 (inactive)

What the record says about "NC[C@H](O)c1ccc(O)c(O)c1" : normalized growth is 1 (inactive)

Entry O=C(O)CCCCC1CCSS1 (configuration not stated) ; normalized growth = 0.979 (inactive)

Entry under test: CN1C(CC(=O)c2ccccc2)CCCC1CC(O)c1ccccc1 (configuration not stated) . Its normalized growth was 0.971 (inactive)

Just so you know, measured normalized growth for O=C1C=CC2=C3c4cc(O)c(O)cc4CC3(O)COC2=C1O (configuration not stated) came out at 0.969 (inactive)

The compound identified as "NCCCC[C@H](N[C@@H](CCc1ccccc1)C(=O)O)C(=O)N1CCC[C@H]1C(=O)O" registered its normalized growth at 0.941 (inactive)

Value of measured normalized growth for the entry CN(C)CCOC(C)(c1ccccc1)c1ccccn1 (configuration not stated) : 1 (inactive)
